Origin of measurements: PubChem BioAssay AID1671202

Biological target: Huntingtin (Homo sapiens)
Assay: mutant huntingtin-calmodulin interaction inhibitors – biochemical, AlphaScreen, primary screen (AID 1671202)
Settings: AlphaScreen His-mHTT/GST-CaM binding, luminescence; at 15 µM, stronger effect = higher value
The whole screen tested about 190,000 compounds, of which about 6,900 (3.6%) were called active. The entries come from a sample that favours actives as a whole.
Each entry gets Condition not met if its inhibition stays under 10%, and Condition met if its inhibition is 10% or above.

// query Please indicate if the recorded inhibition for O=C(N1CCCC1)C12CC3CC(C1)CC(c1ccccc1)(C3)C2 meets or exceeds 10%.
// result Condition not met

// query Is reported inhibition greater than or equal to 10% here: Cc1ccccc1-n1cnc(C(=O)NCCC(C)C)n1
// result Condition not met

// query # bool: inhibition of CC(C)CC(=O)N1CCc2ccccc2C1 >= 10%
// result Condition not met

// query Decide: inhibition of Cc1cccc2[nH]c(S(=O)(=O)Cc3ccc(F)cc3Cl)nc12 >= 10%?
// result Condition not met

// query Test whether the compound COc1ccc(CNC(=O)CC2CCN(C(=O)c3[nH]c(C)c(C)c3C)CC2)cc1 records inhibition of 10% or higher.
// result Condition met

// query Could you tell me if the measured inhibition of Cc1cc2[nH]c(C(=O)Nc3ccccc3F)c(CN3CCOCC3)c2s1 reaches 10% or more?
// result Condition met

// query Item O=C(Nc1ccc2c(c1)OCCO2)C1CCc2sc(C(=O)N3CCCC3)cc2C1 (stereo unspecified) with inhibition of 10% or above?
// result Condition met

// query Is the recorded value of inhibition equal to or greater than 10% for this compound? Cc1cccc(N2CCN(C(=O)CCC3CCCN(C(=O)Nc4ccccc4)C3)CC2)c1C (stereo unspecified)
// result Condition met

// query Given CC(C)CCNC(=O)C1(C)CCC(=O)N1Cc1ccc(OC(C)C)cc1 (stereo unspecified) , state whether its inhibition is at least 10%.
// result Condition not met

// query Decide: inhibition of CCCCN(C)C(=O)C1CCCN(c2ncccc2-c2noc(C3CCC3)n2)C1 (stereo unspecified) >= 10%?
// result Condition met

// query # bool: inhibition of CN(C)c1ccc(CCCNC(=O)C23CC4CC(CC(C4)C2)C3)cc1 >= 10%
// result Condition not met

* * *

Target: Huntingtin (Homo sapiens)
Assay: mutant huntingtin-calmodulin interaction inhibitors – biochemical, AlphaScreen, primary screen (AID 1671202)
Details: AlphaScreen His-mHTT/GST-CaM binding, luminescence; at 15 µM
In all, about 190,000 compounds went through this assay and about 6,900 (3.6%) were called active. Cut-off read from the data, not from the text of the source: active = inhibition above about 50%; inactive = the rest. The sample as a whole holds a higher share of actives than the screen did.
Respond only with the outcome that fits, drawn from active, inactive

// query Check the results log: what was the call for CCc1cccc(NC(=O)N2CCc3c(nc4cc(-c5ccc(OC)cc5)[nH]n4c3=O)C2)c1 ?
// result inactive

// query Per the records of this test, what outcome belongs to COc1ccc(-c2cc3nc4c(c(=O)n3[nH]2)CCN(C(=O)c2ccccc2C)C4)cc1 ?
// result active

// query Dear colleague, could you share the recorded outcome for O=C1/C(=C/c2cccs2)CC2CC1C/C(=C\c1cccs1)C2=O when you have a moment?
// result inactive

// query Called result for O=C(Nc1ccc(Cl)cc1)c1cc(S(=O)(=O)NCc2ccccc2)ccc1Cl
// result inactive

// query Which outcome did this test record for the molecule COc1ccccc1CC(=O)N1CCCn2nc(-c3ccc(C)cc3)cc2C1 ?
// result inactive

// query # lookup: test call for Cc1ccccc1NC(=O)NCc1ccsc1
// result inactive

// query Which outcome did this test record for the molecule CC(=O)c1ccc(NC(=O)CSc2ncc(-c3ccc(C)c(C)c3)o2)cc1 ?
// result inactive

// query // return assay outcome for CNc1nccc(N2CCC(CC(=O)N3CCN(c4ccccc4)CC3)CC2)n1
// result inactive

// query Which result was noted for this molecule in the test: COc1ccc(OC)c(-c2cc(C(=O)Nc3nc4c(s3)CCCC4)n(C)n2)c1
// result inactive

// query Dear colleague, could you share the recorded outcome for COC(=O)C1CN(CCc2ccccc2)CCS(=O)(=O)N1Cc1ccc(F)cc1 (stereo not drawn) when you have a moment?
// result active

// query Any idea what this test logged for O=S1(=O)c2ccc(Br)cc2OC[C@@H](Cc2ccccc2)N1Cc1cn(Cc2ccco2)nn1 ?
// result inactive

// query What call does the record list for CNC(=O)N1CCc2nc3cc(-c4ccc(OC)cc4)[nH]n3c(=O)c2C1 ?
// result inactive

// query # fetch the recorded call for O=c1c(Cl)c(N2CCCC2)cnn1-c1ccccc1 here
// result inactive

// query For this molecule, state the assay outcome: Cc1n[nH]c(=O)nc1N/N=C/c1cccs1
// result active

// query Outcome logged for COc1ccccc1C1(CCNCc2ccc3c(c2)OCO3)CCOC(C)(C)C1 (stereo not drawn) in this assay:
// result inactive

// query Give the logged outcome of this assay for the following molecule: COC(=O)C1CN(CC(C)C)CCS(=O)(=O)N1Cc1ccc(F)cc1 (stereo not drawn)
// result inactive

// query Which outcome was assigned to O=[N+]([O-])c1cccc(C=Nc2ccc3nc(-c4cccc(F)c4)oc3c2)c1O in this test?
// result inactive

// query Hi, sorry to bother you, what did the test record for O=C(c1ccc(C(F)(F)F)s1)N1CCc2c(nc3cc(-c4ccccc4)[nH]n3c2=O)C1 ?
// result inactive

// query What did this assay record as the result for O=C(C1COc2ccccc2O1)N1CCc2c(nc3cc(-c4ccccc4)[nH]n3c2=O)C1 (stereo not drawn) ?
// result active

// query Hi team, can someone confirm the assay call for Cc1ccc(C(=O)N2CCC(n3cnnc3-c3ccccc3)C2)cn1 (stereo not drawn) ?
// result inactive

// query Field: outcome | Entry: O=[N+]([O-])c1ccc(Oc2ccc(Cl)c3cccnc23)c(Cl)c1
// result inactive

// query Dear all, I need the recorded test outcome for COc1ccc(-c2cc3nc4c(c(=O)n3[nH]2)CN(C(=O)c2ccc(C)nc2)CC4)cc1 , thank you.
// result inactive

// query Write down the call the test reported for this molecule. Item: CCOc1ccc2nc(C(=O)Nc3ccc(Br)cc3)sc2c1
// result inactive

// query // return assay outcome for CCc1cc(C(=O)Nc2ccccc2)no1
// result inactive

// query Which outcome was assigned to COc1ccc(N2C(=O)CSC2c2c(F)cccc2Cl)c(OC)c1 (stereo not drawn) in this test?
// result inactive

// query Status in this test for CCCN1C(=O)COc2ccc(-c3noc(-c4ccccc4C(F)(F)F)n3)cc21 ?
// result inactive

// query Test call for this molecule, please: CCn1c(SCC(=O)Nc2ccc(Br)cc2)nnc1-c1cc(OC)cc(OC)c1
// result inactive

// query For this molecule, state the assay outcome: O=S(=O)(c1cccc(Cl)c1Cl)N1CCN(c2cc(N3CCCC3)ncn2)CC1
// result inactive

// query Please share the test call associated with COc1ccc(NC(=O)C2CC(=O)N(c3ccc4oc(C)nc4c3)C2)cc1 (stereo not drawn) .
// result inactive

// query Called result for Cc1ccc(C(O)=C2C(=O)C(=O)N(c3ncccn3)C2c2cccc(Br)c2)cc1 (stereo not drawn)
// result active

// query Test call, this molecule: COc1ccccc1C=C1Oc2cc(C)cc(O)c2C1=O
// result inactive

// query Name the outcome recorded for Cc1ccc(N2CC(C(=O)Nc3cc(C(F)(F)F)ccc3Cl)CC2=O)cc1C (stereo not drawn) in the assay.
// result inactive

// query Answer briefly: the call reported for COc1ccc(C2C(=C(O)c3ccc(C)cc3)C(=O)C(=O)N2c2ccccn2)cc1 (stereo not drawn) in this assay.
// result inactive

// query Recorded test call requested for N#C/C(=C\c1cn[nH]c1-c1cccs1)c1nc2ccccc2[nH]1
// result inactive

// query Fill in: this test's call for CC(=O)N1CCc2c(sc(NC(=O)c3cc(C)oc3C)c2C(N)=O)C1 is ___
// result inactive

// query Could you kindly confirm the outcome this assay logged for CCNc1cc(Nc2ccccc2)c2c3c(onc13)-c1ccccc1C2=O ?
// result active

// query So what was the verdict on COCCN1CCC(N2CCCN(C(=O)c3ccc(C)c(F)c3)CC2)C1=O (stereo not drawn) in this test?
// result inactive

// query State the result this test recorded for CCc1onc(C)c1C1CCCN1Cc1cc(Br)ccc1F (stereo not drawn) .
// result inactive

// query # outcome recorded in this test, key = Cc1cc(-c2nnc(NC(=O)C3CC(=O)N(c4ccc(C)c(C)c4)C3)o2)n(C)n1 (stereo not drawn)
// result active

// query Write down the call the test reported for this molecule. Item: COc1ccccc1NC(=O)C(CCS(C)(=O)=O)NC(C)=O (stereo not drawn)
// result inactive

// query Given CCOc1ccc(-c2ccc(N3CCN(C(=O)Cn4cnc5ccccc54)CC3)nn2)cc1 , state the outcome it received in this test.
// result inactive

// query Hi team, can someone confirm the assay call for Fc1ccc(C2CC(c3ccc(Br)cc3)Nc3ncnn32)cc1 (stereo not drawn) ?
// result inactive

// query Check the results log: what was the call for CCN(CC)S(=O)(=O)N(CC(=O)NC(C)(C)C)Cc1ccc(F)cc1 ?
// result inactive
